# TESTED_ON: T1, human CTLA-4 (human, UniProt P16410 36-223)
# T1 construct: whole, on cells
# PROTOCOL_DETAILS: flow cytometry, cells with human CTLA-4; protein from CHO
PROPERTY_NAME: MFI (ΔWT) (fold vs WT)
Respond numerically; units are fold vs WT and should not be typed.

Examples with their reported MFI (ΔWT) follow.
ICOSL IgV with N52H/N57Y/Q100R and H48R/S54P, Fc fusion (Fc fusion, Made in CHO cells. '554P' is read as S54P; also called ICOSL IgV with N52H/N57Y/Q100R and H48R/554P) DTQEKEVRAMVGSDVELSCACPEGSRFDLNDVYVYWQTSESKTVVTYRIPQHSPLEYVDSRYRNRALMSPAGMLRGDFSLRLFNVTPQDEQKFHCLVLSRSLGFQEVLSVEVTLHVAANFSVGGGGSGGGGSEPKSSDKTHTCPPCPAPEAEGAPSVFLFPPKPKDTLMISRTPEVTCVVVDVSHEDPEVKFNWYVDGVEVHNAKTKPREEQYNSTYRVVSVLTVLHQDWLNGKEYKCKVSNKALPAPIEKTISKAKGQPREPQVYTLPPSREEMTKNQVSLTCLVKGFYPSDIAVEWESNGQPENNYKTTPPVLDSDGSFFLYSKLTVDKSRWQQGNVFSCSVMHEALHNHYTQKSLSLSPG    42.4
ICOSL ECD Truncation #5 with N52H/N57Y/Q100R/C198R (Fc fusion, not shown: a dimerising Fc or GST, Made in CHO cells) DTQEKEVRAMVGSDVELSCACPEGSRFDLNDVYVYWQTSESKTVVTYHIPQHSSLEYVDSRYRNRALMSPAGMLRGDFSLRLFNVTPQDEQKFHCLVLSRSLGFQEVLSVEVTLHVAANFSVPVVSAPHSPSQDELTFTCTSINGYPRPNVYWINKTDNSLLDQALQNDTVFLNMRGLYDVVSVLRIARTPSVNIGCRIENVLLQQ    28.5
ICOSL ECD Truncation #7 with N52H/N57Y/Q100R/C198R and E90K/E111G (Fc fusion, not shown: a dimerising Fc or GST, Made in CHO cells) DTQEKEVRAMVGSDVELSCACPEGSRFDLNDVYVYWQTSESKTVVTYHIPQHSSLEYVDSRYRNRALMSPAGMLRGDFSLRLFNVTPQDKQKFHCLVLSRSLGFQEVLSVGVTLHVAANFSVPVVSAPHSPSQDELTFTCTSINGYPRPNVYWINKTDNSLLDQALQNDTVFLNMRGLYDVVSVLRIARTPSVNIGCRIEN    11
ICOSL ECD with N52H/N57Y/Q100R/C198R (Table 18) (Fc fusion, not shown: a dimerising Fc or GST, Made in CHO cells; May be the same construct as m37) DTQEKEVRAMVGSDVELSCACPEGSRFDLNDVYVYWQTSESKTVVTYHIPQHSSLEYVDSRYRNRALMSPAGMLRGDFSLRLFNVTPQDEQKFHCLVLSRSLGFQEVLSVEVTLHVAANFSVPVVSAPHSPSQDELTFTCTSINGYPRPNVYWINKTDNSLLDQALQNDTVFLNMRGLYDVVSVLRIARTPSVNIGCRIENVLLQQNLTVGSQTGNDIGERDKITENPVSTGEKNAAT    17.5
ICOSL IgV with N52H/N57Y/Q100R, Fc fusion with (G4S)2 linker (Fc fusion, also called ICOSCL IgV with N52H/N57Y/Q100R) DTQEKEVRAMVGSDVELSCACPEGSRFDLNDVYVYWQTSESKTVVTYHIPQHSSLEYVDSRYRNRALMSPAGMLRGDFSLRLFNVTPQDEQKFHCLVLSRSLGFQEVLSVEVTLHVAANFSVGGGGSGGGGSEPKSSDKTHTCPPCPAPEAEGAPSVFLFPPKPKDTLMISRTPEVTCVVVDVSHEDPEVKFNWYVDGVEVHNAKTKPREEQYNSTYRVVSVLTVLHQDWLNGKEYKCKVSNKALPAPIEKTISKAKGQPREPQVYTLPPSREEMTKNQVSLTCLVKGFYPSDIAVEWESNGQPENNYKTTPPVLDSDGSFFLYSKLTVDKSRWQQGNVFSCSVMHEALHNHYTQKSLSLSPG    27

// next entry
Challenge: Would you mind telling me what MFI (ΔWT) value was observed for ICOSL ECD Truncation #6 with N52H/N57Y/Q100R/C198R (Fc fusion, not shown: a dimerising Fc or GST, Made in CHO cells) DTQEKEVRAMVGSDVELSCACPEGSRFDLNDVYVYWQTSESKTVVTYHIPQHSSLEYVDSRYRNRALMSPAGMLRGDFSLRLFNVTPQDEQKFHCLVLSRSLGFQEVLSVEVTLHVAANFSVPVVSAPHSPSQDELTFTCTSINGYPRPNVYWINKTDNSLLDQALQNDTVFLNMRGLYDVVSVLRIARTPSVNIGCRIENVLL ?
Response given: 31.1
